Test description: soluble on expression in E. coli; label from the status in PepcDB or PDB records
Attribute measured: soluble on expression in E. coli

Example cases with answers are listed next.
{"Chain sequence": "MATAVELALLKQPYFDLNALCKTVFVTYKAGPGLKKIVTVQAQYVDICNKPNVRGTVVSLPGSPGSHNDIKYMRDSFEKHNIRLICVNWPGSEFVTGGMNDTYTNAERNSYAKALMEKLELKKVEKLILLGHSRGGESALQLACTLSDDRSWPLIGAVMLNSPGFVVHRGISIRMGTINTVSFLVKLRWKIVDCILFPVLDWFYNDFVGLRVSDGKVCAAAMLPMQTFAFEEQRASIDEMKKKPWIRMFYAYGSKDFLVDESDSEELAMHFGGDHYIIHSKKESEETIPKIWNSYERGQSYVTANFTEEGHYLHKTYPEFLIQIFGGIFDVKTEKS", "Attribute measured": "soluble on expression in E. coli", "Endpoint value": "not soluble"}
{"Chain sequence": "MNFMEIGTPLFEGAKKLLWLGGGELGKEMVIEAQRMGIETVVVDRYDMAPAMHVAHRKYVVNMLDGNAIKSIIKKENPDAIITEIEAINTDALLELESEGYKVIPNAKAVKICMNRIELRKLAAEKVKVPTTQYGFAENPEEVKKICKDIGYPCIIKPEMSSSGHGHEVVYNESEVEQKFKEAITHARGKSEQVIVEEYVKIDRELTVLTYRYLDDKGVVTKTITPIEHQRPSDVYYYVESWHPSTVDKDIIERAQEYATRVVNELGGFGIFGVEIIVSGNRVLFSEVSPRPHDTGLVTMASLDINEFQIHVRSALGLPTPEVKIVSPAAAHVILANNEGWAPKFLNVEKALQIPGVQIRLFGKPSTYYKRRMGVVLATGNTVEEAKEKARKAASLVLVT", "Attribute measured": "soluble on expression in E. coli", "Endpoint value": "soluble"}
{"Chain sequence": "MQMAGFGLIAKLRNKIRVKPNNKIQIGKNTRIRYCDIYVNGNNNQLIIHNGANLKGVSIELNGNNCLLEIGENCVIGENCFLSCRESGTKLVIGKECMFSRNVKLMTSDGHDILRDGKRINPAKSIYIGSHVWLADNVTILKGVDIGSGSIIGINSTVTKSIGQYCIAAGNPARKIKDNISWNTTLSY", "Attribute measured": "soluble on expression in E. coli", "Endpoint value": "not soluble"}
{"Chain sequence": "MEDCRGDGSRREIERRRKYGRELQDLREGGEEFEYYFFVSNVFRTKLQKMPGADYSAVKGGGLKLKAGKKNLFKVGKEKKKKNKDDKEKIDPDTVENGGWRKIADEFDMKGGTNVAIEVASGAGSTRTYVAAMDNGKFTIGFPHPEGEGPNPEEIFALVKTPDDSKISLKTGFGRYVGVDSEYQLVAMAEAIGSREQFVLVFQEGKTAFQAVSSPLFLSTVPNKEGHIYVASRTATENEMVNIRTDAIQEGPVDWRSVEDRKNARECETAYVKMYQHSKVDLKNRHIAIDVKDKKGVKKAQADGSAHELLLDRRMKMKSDRYC", "Attribute measured": "soluble on expression in E. coli", "Endpoint value": "not soluble"}

Q: What value of measured soluble on expression in E. coli is listed for `GPGSMEVKIGKDVALLTAHKTYRDDGEDMVKAVATYVPFMNYVAACESSGLVPSAFLVRNVRHIARRVVGVIMDVECNTPTGKIVQPVEMSDFSPAILLPVVIVETVRYALLLQRRCVAVGCGLTTEAFCGAKDSGDNITWQNHELLTSAGFDLRDVRKLGFGEYSVGNEGLPPYTLHTIKKGMSSEEFEQLQKISAGTADASLFAVRLEDVMSSVNDAKAGLAASVLLLES` ?
Result: soluble

* * *

Test description: soluble on expression in E. coli; label from the status in PepcDB or PDB records
Attribute measured: soluble on expression in E. coli

{"Chain sequence": "MIAMAQQDVKPTRSELINLKKKIKLSESGHKLLKMKRDGLILEFFKILNEARNVRTELDAAFAKSTEKINLASAVNGMVAVRSTAFTAKESPEIQLSGHNIMGVVVPKISSTGVRKSLYERGYGIIGTNSYIDETADAYEDLVEKIITAAELETTMKRLLDEIEKTKRRVNALEFKVIPELIDTMKYIRFMLEEMERENTFRLKRVKARMRDLEHHHHHH", "Endpoint value": "not soluble"}
{"Chain sequence": "GPGSMLRLGQPTLTAMRCVPAASASATAVAPTTSYPSTSAALLANTRAIHGEVRHQNTDYDNTRIPWDFTTSSYEKIHNEILPKFPRGRRISATIPLLHLAQQQQGGYIPVTAMYKIAKICEVPPMHVFETVTFYSMFNRHPVGKYHIQFCRTTPCMLCGADELMERTMHYLNVRMHGTTSDGLITIGEMECLGACVNAPMLVVSDYSNPPNFSYDYMEDLTWESIKTLVENLRGGKPFKIGSQRLDRRYAEPAGGRTSLLFKEPPGPYCRDFDAEPDKKADAASPKK", "Endpoint value": "not soluble"}
{"Chain sequence": "MGSDKIHHHHHHMKQIKHTFEEKKKMGGKASMWNLWHGCHKWSEGCRHCYVYRTDGKYGKDSSVVTKTEKFGLPLQKKKNGEYKIPSGNLVYTCFTSDFLIEDVDEWRAEAWEMMRIRQDLHFMFITKRIDRLQQCLPPDWGDGYDNVTICCTMENQDRVDYRLPIYKESPIKHKIIICEPLLSQIDFRGELEGWVEQVVAGGESGKEARVCNYDWVLDIRRQCVEAHVGFWFKQTGSYLLKDGHEYKVARQFQHSQARKAELNYTPEK", "Endpoint value": "not soluble"}

* * *

Test description: soluble on expression in E. coli; label from the status in PepcDB or PDB records
Attribute measured: soluble on expression in E. coli

{"Chain sequence": "LTPIVGPSNFRVQVAADMDFSQVEETREILDNAPVVRNEHTIQNNSIDQIALGVPGSLSNQPPVTGEAATNDSQNTNARSEVNRQYAVGSSVRRTQYQQGQIEKLSVSVLLNSKASPDGVAWSDADKAQISTMITDAVGISAARGDSLSLMSFNF", "Attribute measured": "soluble on expression in E. coli", "Endpoint value": "not soluble"}
{"Chain sequence": "MININRYTLSNGLRVIHNEDNTTQMVALNLLYDVGARDEDPDHTGFAHLFEHLMFGGSIHVPDYDTPVQNAGGENNAWTNNDITNYYITLPRQNVETGFWLESDRMLSLDFNPRSLEVQRQVVIEEFKQRNLNQPYGDASHLLRALAYKVHPYQWPTIGKEISHIANATLEEVKAFFFKYYAPDNAILAVTGHITFEETVTLAEKWFGPIPRRNVAP", "Attribute measured": "soluble on expression in E. coli", "Endpoint value": "not soluble"}
{"Chain sequence": "KTGFFVGPMAEFTLPIIGIGADVAALYSQTDLGADGEKTMKLKTFAVPVNLKWSFGLGSMLGAYIAAGPQFDFNIGNKTWTRELSLKKSTTSFNVGAGLKLIRHLQLGVNYNFALSKTGTYEYYTEGESGDGHHSVNIKNNTWQVSLAYLF", "Attribute measured": "soluble on expression in E. coli", "Endpoint value": "not soluble"}

* * *

Test description: soluble on expression in E. coli; label from the status in PepcDB or PDB records
Attribute measured: soluble on expression in E. coli

Example cases with answers are listed next.
{"Chain sequence": "MGSDKIHHHHHHLTDLKDALRTEALDAGFAKMGVCSPNAVPETAARLKAFVDAGFHGQMGWMAERMHWRGDASALWPEAKSVVMLAEPYTPDSDPLDALARKDRATISVYAQGRDYHDLVKKRLKRVGRWLLAQCPGEQIKVFVDTAPVMEKPLAQAAGLGWQGKHTNLLARDLGNWVFLGAIFTTVELPIDEPEAEHCGSCTACLDICPTNAFPAPFQLDARKCISYLTIEHKGPVDLALRAKLGNRIYGCDDCLAVCPWNKFAQTARDIRYAPRDDLRSPLLADLAALDDAGFRARFSGSPIKRIGRDRFVRNILYAIGNSGQAKLVDAARPLTDDPDVAVADAARWAMERLL", "soluble on expression in E. coli": "not soluble"}
{"Chain sequence": "MIDFSNFYQLIAKSPLSHWLETLPAQVAAWQRDALHGKFREWERAVEFLPELTPWRLDLLHSVTAESETPLSEGHQRRIENLLKNLMPWRKGPYSLYGINIDTEWRSDWKWERVLPHLSDLTGRTILDVGCGSGYHMWRMIGAGAHLAVGIDPTQLFLCQFEAVRKLLGNDQRAHLLPLGIEQLPALEAFDTVFSMGVLYHRRSPLDHLWQLKDQLAPGGELVLETLVVEGDENTVLVPGDRYAQMRNVYFIPSAAALKMWLEKCGFIDVRIVDACVTSTEEQRRTEWMTTESLADFLDPQDQRKTVEGYPAPLRAVIIATKPETQQSLAKKAR", "soluble on expression in E. coli": "not soluble"}
{"Chain sequence": "EGLLNNHLDIPTATTQALTIQPSASYRINDHWSVGAALGIQYGMYEVETKGALNFNDEDQDTQLNGRVGVLYEATPGTRLGLSYSSETEFEFDNSNSIAPQQLIFSAYHEVNDDLAVMWNVNWQDWSEYTTTLKAADLVDVETQDTYQIALGTQYKLNEKMMWNAGFAFDTSMYESQSNGDITVPTGKAYRIGTGIDYKLDSENSIGFAFEAVLMESSETPRLQAGFDEPALYFMSMSYNWKN", "soluble on expression in E. coli": "not soluble"}
{"Chain sequence": "MSDLMQKENIVVMLTKKGFLKRLSQNEYKLQGTGGKGLSSFDLNDGDEIVIALCVNTHDYLFMISNEGKLYLINAYEIKDSSRASKGQNISELINLGDQEEILTIKNSKDLTDDAYLLLTTASGKIARFESTDFKAVKSRGVIVIKLNDKDFVTSAEIVFKDEKVICLSKKGSAFIFNSRDVRLTNRGTQGVCGMKLKEGDLFVKVLSVKENPYLLIVSENGYGKRLNMSKISELKRGATGYTSYKKSDKKAGSVVDAIAVSEDDEILLVSKRSKALRTVAGKVSEQGKDARGIQVLFLDNDSLVSVSKFIK", "soluble on expression in E. coli": "soluble"}
{"Chain sequence": "MSTNEIYNREEVLLLIEKLLGNNIEIPILLMLLLGLRMGEATGLRWSDVDLDNNLINVNQILVYSNGKISFKEPKTPKSKRALSAPKELIEKLKIEKLRQSKLKLQGILENKNNLVCLNTNLNPFLPSSLRKTFHNFTKKNNLKKIRIHDLRHTSATLLLLGGTNMKVVSERLGHTDIKITMNRYSHVLKEMDKEASDNLSELLEHHHHHH", "soluble on expression in E. coli": "not soluble"}
{"Chain sequence": "MSLEAGAGAPLARYAAWRRAGDFIFLSGIIPVNPLTGTIVNGFQDVPEPVRELLGATGEFSTDAKQGPILAQSWYVLESIRRTVASAGGQMSDVIKLVQYFRNLDHFPYYSRVRKLFYPDQPPVSTVVQVSEMLPDATVLIEVEATVWLPPSFNSEAEGHHHHHH", "soluble on expression in E. coli": "soluble"}
{"Chain sequence": "MSLDAITVDLNYDKNNVAVITPVWSQEWSVANVLGGWVCRSNRNENEGACEETHLVWWYAFGAYSKIRLRFREQISHAEITLILLGSVRDACYTGVINMNAAACQWGRSLKLRIPSEELAKIPTSGTWKATLVLDYLQWGGDDPLGTSTTDITLNVTDHFAENAAIYFPQFGTATPRVDLNLHRMNASQMSGRANLDMCLYDGGVKARSLQMKIEGSNKSGTGFQVIKSDSADTIDYAVSMNYGGRSIPVTRGVEFSLDNVDKAATRPVVLPGQRQAVRCVPVPLTLTTQPFNIREKRSGEYQGTLTVTMLMGTQTPEGHHHHHH", "soluble on expression in E. coli": "not soluble"}
{"Chain sequence": "MESEGEAQMFADCDQKTVKQTAAKPMSSKKKQDFQALASDRQLAIVFSSMIQVSEAFDYGIGNPEYFVRISMTEEEADIAKENLESIKLENKSLKKQNSEAVALLQKTRNQDMSRIEIQQLTENRAGFFETADSMIKLINQVTPKNAKKTRQQLDQLKKQYTQYSAESIKIMNSIVKKQKADKASFERHLEALLQKQPGQQVRSELYLEHHHHHH", "soluble on expression in E. coli": "soluble"}

Q: What value of measured soluble on expression in E. coli is listed for `MQKDYQKLIVYLCDFLEKEVQKRGFKKVVYGLSGGLDSAVVGVLCQKVFKENAHALLMPSSVSMPENKTDALNLCEKFSIPYTEYSIAPYDAIFSSHFKDASLTRKGNFCARLRMAFLYDYSLKSDSLVIGTSNKSERMLGYGTLFGDLACAINPIGELFKTEVYELARRLNIPKKILNKPPSADLFVGQSDEKDLGYPYSVIDPLLKDIEALFQTKPIDTETLAQLGYDEILVKNITSRIQKNAFKLELPAIAKRFNPELEHHHHHH` ?
Result: soluble

Q: What value of measured soluble on expression in E. coli is listed for `GPGSMLSQYLRKRVSVVTVDGRNLVGVLHAADQLLNIVLTSCVERTGAPYDFDDGAAEEDNGSVVDEGVSTAFSGGDTASGALPPLEEVHLGVMMLRGADVVSIAAIDVYEEAGTNVKDWRGRDMPPATAVARSW` ?
Result: soluble

Q: What value of measured soluble on expression in E. coli is listed for `MGSDKIHHHHHHMTATDSSILNQYLVGKEPFYQPQHDEVALFEAAYRKRLPVMVKGPTGCGKSRFVEFMAWRLGKPLVTVACNEDMTAADLVGRWLLDKDGTRWQDGPLTVAARYGAICYLDEIVEARQDTTVVIHPLTDHRRTLPLDKKGELIRAHPDFQLVISYNPGYQSLMKDLKQSTKQRFTGFEFDYPNAELEAGILVQETGVAPSIAAQLVTVAATARRLKGHGLDEGISTRLLVYAAMLMDDGVAPRAACRMALVQPITDDADIRATLEHAIDMTFA` ?
Result: not soluble
